# Test system: mouse peritoneal macrophages
# run description: Suppression of foaming of macrophages: cholesterol ester (CE) production in mouse peritoneal macrophages loaded with liposomes
# Type: cell-based
# condition context: test compound 5 μM; 16 h with liposomes; cholesterol ester yield relative to control without test compound = 100% (smaller value = more potent suppression)
Lab note: compare CE yield (%) against 20%. Equal or greater, write label 1. Smaller, write label 0.

1) O=C1CSC(=O)N1CCCCCSc1nc2ccccc2[nH]1 = label 0
2) O=C1c2ccccc2C(=O)N1CCCCSCc1nc2ccccc2[nH]1 [Ref. 1, reference compound] = label 1
3) O=C1CCC(=O)N1CCCCCSc1nc2ccccc2[nH]1 = label 0
4) CC(C)Oc1cccc(OC(C)C)c1NC(=O)CN1CCN(CCCSc2nc3ccccc3[nH]2)CC1 [Ref. 2, reference compound] = label 1
5) O=C1CSC(=O)N1CCOCCSc1nc2ccccc2[nH]1 = label 1
6) O=C1CSC(=O)N1CCOCCOCCSc1nc2ccccc2[nH]1 = label 1
7) CCCCCCN(CCCCCSc1nc2ccccc2[nH]1)C(=O)Nc1ccc(F)cc1F [Ref. 3, reference compound] = label 1
8) CCC(=O)n1c(SCCCCCN2C(=O)OC(C)C2=O)nc2ccccc21 (centres unmarked) = label 0
